Entries with reported AC50 on Thromboxane A2 receptor (Homo sapiens)
Sequence (P21731 whole entry): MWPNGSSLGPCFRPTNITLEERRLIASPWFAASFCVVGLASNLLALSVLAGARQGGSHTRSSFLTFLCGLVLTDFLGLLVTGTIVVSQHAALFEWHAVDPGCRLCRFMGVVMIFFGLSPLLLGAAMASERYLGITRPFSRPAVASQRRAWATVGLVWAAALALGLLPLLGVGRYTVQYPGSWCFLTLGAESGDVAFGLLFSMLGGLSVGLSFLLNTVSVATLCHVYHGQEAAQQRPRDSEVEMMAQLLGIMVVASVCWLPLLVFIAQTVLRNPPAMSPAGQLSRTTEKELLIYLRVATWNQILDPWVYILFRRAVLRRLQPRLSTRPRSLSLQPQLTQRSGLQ
measured_parameter: AC50

>>> recorded_measurement("N=C(N)NC(=O)c1nc(Cl)c(N)nc1N [AMILORIDE]")
"> 30 µM"
>>> recorded_measurement("CNC1(C)C2CCC(C2)C1(C)C (stereo unspecified) [MECAMYLAMINE]")
"> 10 µM"
>>> recorded_measurement("CC(C)CN(C[C@@H](O)[C@H](Cc1ccccc1)NC(=O)O[C@H]1CCOC1)S(=O)(=O)c1ccc(N)cc1")
"> 30 µM"
>>> recorded_measurement("CCN(CCO)CCCC(C)Nc1ccnc2cc(Cl)ccc12 (stereo unspecified) [HYDROXYCHLOROQUINE]")
"> 10 µM"
>>> recorded_measurement("CCOc1cc2ncc(C#N)c(Nc3ccc(OCc4ccccn4)c(Cl)c3)c2cc1NC(=O)/C=C/CN(C)C [NERATINIB]")
"> 30 µM"
>>> recorded_measurement("C=C(c1ccccc1OCc1cccc(Cl)c1)n1ccnc1 [CROCONAZOLE]")
"16.2 µM"
>>> recorded_measurement("CN(C)CCCC1(c2ccc(F)cc2)OCc2cc(C#N)ccc21 (stereo unspecified) [CITALOPRAM]")
"> 30 µM"
>>> recorded_measurement("CN(C)CCC(O)(c1ccccc1)c1ccccc1Cl (stereo unspecified) [CHLOPHEDIANOL]")
"> 10 µM"
>>> recorded_measurement("CCCCOC(=O)C(=O)Nc1cccc(-c2nnn[nH]2)c1 [TAZANOLAST]")
"> 30 µM"
>>> recorded_measurement("CC(C)NCC(O)COc1ccc(CC(N)=O)cc1 (stereo unspecified) [ATENOLOL]")
"> 30 µM"
>>> recorded_measurement("CC(C)(N)Cc1ccccc1 [PHENTERMINE]")
"> 30 µM"
>>> recorded_measurement("CC(C)/N=c1\\cc2n(-c3ccc(Cl)cc3)c3ccccc3nc-2cc1Nc1ccc(Cl)cc1 [CLOFAZIMINE]")
"> 30 µM"
>>> recorded_measurement("C[C@@H](Cc1ccccc1)N(C)Cc1ccccc1 [BENZPHETAMINE]")
"> 10 µM"
>>> recorded_measurement("CC(C(=O)O)c1ccc(C(=O)c2ccccc2)s1 (stereo unspecified) [TIAPROFENIC ACID]")
"> 10 µM"
>>> recorded_measurement("O=C(c1ccccc1)c1ccc2n1CCC2C(=O)O (stereo unspecified) [KETOROLAC]")
"> 10 µM"
>>> recorded_measurement("CN(C)[C@@H]1C(O)=C(C(=O)NCN2CCCC2)C(=O)[C@@]2(O)C(O)=C3C(=O)c4c(O)cccc4[C@@](C)(O)[C@H]3C[C@@H]12 [ROLITETRACYCLINE]")
"> 10 µM"
>>> recorded_measurement("Oc1cc(Cl)ccc1Oc1ccc(Cl)cc1Cl [TRICLOSAN]")
"21 µM"
>>> recorded_measurement("CCOC(=O)C1=C(C)NC(C)=C(C(=O)OC)C1c1cccc(Cl)c1Cl (stereo unspecified) [FELODIPINE]")
"8.41 µM"
>>> recorded_measurement("COc1nc(C)nc(Cl)c1N=C1NCCN1 [MOXONIDINE]")
"> 30 µM"
>>> recorded_measurement("CC(C)(Oc1ccc(Cl)cc1)C(=O)OCCOC(=O)c1cccnc1 [ETOFIBRATE]")
"> 30 µM"
>>> recorded_measurement("O=C(O)COC(=O)Cc1ccccc1Nc1c(Cl)cccc1Cl [ACECLOFENAC]")
"2.54 µM"
